# System: ErbB-3 or ErbB-4 receptors
# Method Summary: Alanine scan of the HRG-β1 EGF-like domain by phage ELISA (FIG. 2)
# Format: binding
# Run Parameters: ratio of variant EC50 to wild-type EC50
Readout Name: effect of substitution with alanine on affinity for the ErbB-3 or ErbB-4 receptors

Molecule | Recorded Value
E215: HRG-β1 variant with E215 mutated to alanine (protein, left off: large carriers; small tags and cut ends, HRG-β1 variant with E215 mutated to alanine) SHLVKCAEKEKTFCVNGGECFMVKDLSNPSRYLCKCPNAFTGDRCQNYVMASFYKHLGIEFMEAEELY | two
